Molecular target: E. coli 70S ribosome particle (E. coli)
Test: ITC, 30 °C, E. coli ribosome
Square brackets hold non-standard residues; d marks the D form. Primed or numbered codes have the meaning given here. FITC′ = fluorescein isothiocyanate label
endpoint.name: pKd
Please report pKd as the negative decimal logarithm of the molar concentration, giving only the number.

Problem: Requested read-out: pKd. Entry: {FITC′}-VDKPPYLPRPRPPR[dR]IYN[dR]-NH2 (not fully specified) [CA3-124 (FITC-Onc112), FITC-…rIYNr-NH2]
Solution: 5.11
